Target: Voltage-dependent N-type calcium channel subunit alpha-1B (Homo sapiens, UniProt Q00975)
Sequence (Q00975 whole entry): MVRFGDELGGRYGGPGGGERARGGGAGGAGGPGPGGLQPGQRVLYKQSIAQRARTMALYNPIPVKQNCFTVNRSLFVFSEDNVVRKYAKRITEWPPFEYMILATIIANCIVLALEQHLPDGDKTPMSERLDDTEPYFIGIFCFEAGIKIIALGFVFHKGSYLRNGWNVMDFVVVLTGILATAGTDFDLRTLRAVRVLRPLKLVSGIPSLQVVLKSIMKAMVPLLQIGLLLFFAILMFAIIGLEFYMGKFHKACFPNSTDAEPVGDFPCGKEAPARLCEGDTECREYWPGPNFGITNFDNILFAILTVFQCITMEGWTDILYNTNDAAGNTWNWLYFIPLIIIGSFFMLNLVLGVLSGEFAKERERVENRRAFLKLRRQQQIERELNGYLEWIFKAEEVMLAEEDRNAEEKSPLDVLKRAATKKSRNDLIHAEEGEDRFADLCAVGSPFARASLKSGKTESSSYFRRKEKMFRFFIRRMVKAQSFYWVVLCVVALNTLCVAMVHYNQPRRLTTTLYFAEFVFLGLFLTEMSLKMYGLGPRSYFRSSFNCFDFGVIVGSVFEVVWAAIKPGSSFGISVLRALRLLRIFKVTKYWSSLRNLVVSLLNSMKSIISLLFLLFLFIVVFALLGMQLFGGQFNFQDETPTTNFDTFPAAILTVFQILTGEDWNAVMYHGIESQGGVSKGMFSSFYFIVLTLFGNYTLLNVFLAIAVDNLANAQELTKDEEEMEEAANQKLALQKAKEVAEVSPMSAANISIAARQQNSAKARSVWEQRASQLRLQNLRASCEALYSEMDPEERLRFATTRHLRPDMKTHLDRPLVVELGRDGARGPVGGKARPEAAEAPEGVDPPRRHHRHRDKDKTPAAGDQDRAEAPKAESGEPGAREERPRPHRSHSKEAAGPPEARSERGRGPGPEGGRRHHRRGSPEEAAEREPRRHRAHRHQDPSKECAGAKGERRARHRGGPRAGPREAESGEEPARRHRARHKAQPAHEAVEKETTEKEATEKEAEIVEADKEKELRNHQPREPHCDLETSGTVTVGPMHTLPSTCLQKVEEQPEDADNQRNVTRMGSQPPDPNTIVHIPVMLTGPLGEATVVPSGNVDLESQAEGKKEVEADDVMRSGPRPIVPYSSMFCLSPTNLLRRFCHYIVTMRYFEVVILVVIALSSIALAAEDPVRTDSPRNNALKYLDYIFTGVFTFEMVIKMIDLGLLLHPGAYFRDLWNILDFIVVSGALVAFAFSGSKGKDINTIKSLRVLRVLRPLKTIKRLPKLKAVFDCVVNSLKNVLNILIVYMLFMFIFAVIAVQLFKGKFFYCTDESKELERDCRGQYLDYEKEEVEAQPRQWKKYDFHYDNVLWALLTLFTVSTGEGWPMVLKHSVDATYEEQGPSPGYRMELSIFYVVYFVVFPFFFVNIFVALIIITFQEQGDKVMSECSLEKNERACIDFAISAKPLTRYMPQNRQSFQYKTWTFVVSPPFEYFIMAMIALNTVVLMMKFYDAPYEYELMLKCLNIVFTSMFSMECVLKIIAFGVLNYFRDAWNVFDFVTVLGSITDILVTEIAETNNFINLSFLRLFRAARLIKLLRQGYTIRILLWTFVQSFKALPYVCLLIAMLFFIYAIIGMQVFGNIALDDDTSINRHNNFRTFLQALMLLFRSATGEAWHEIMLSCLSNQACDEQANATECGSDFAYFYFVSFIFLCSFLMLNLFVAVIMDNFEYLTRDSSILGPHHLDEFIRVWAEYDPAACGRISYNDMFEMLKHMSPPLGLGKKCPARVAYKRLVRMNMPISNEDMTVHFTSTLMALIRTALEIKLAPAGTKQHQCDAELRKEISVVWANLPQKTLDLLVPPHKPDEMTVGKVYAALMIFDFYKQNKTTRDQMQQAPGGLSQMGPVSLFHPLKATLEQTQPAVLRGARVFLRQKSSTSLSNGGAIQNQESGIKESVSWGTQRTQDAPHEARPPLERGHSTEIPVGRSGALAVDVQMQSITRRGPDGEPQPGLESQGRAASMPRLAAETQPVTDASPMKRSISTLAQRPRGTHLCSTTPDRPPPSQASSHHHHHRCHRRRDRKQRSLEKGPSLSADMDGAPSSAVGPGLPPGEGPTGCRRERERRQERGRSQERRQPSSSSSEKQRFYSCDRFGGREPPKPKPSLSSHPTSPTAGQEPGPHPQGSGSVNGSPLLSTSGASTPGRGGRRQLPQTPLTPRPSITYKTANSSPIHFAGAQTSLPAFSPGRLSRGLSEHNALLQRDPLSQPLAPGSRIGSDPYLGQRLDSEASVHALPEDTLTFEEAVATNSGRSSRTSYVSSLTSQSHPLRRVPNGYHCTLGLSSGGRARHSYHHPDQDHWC
Assay: Inhibition of N-type calcium channel in IMR-32 human neuroblastoma cells
Just a reminder that ties go to 0: only IC50 strictly below 4 µM counts as 1.

* Oc1c(CN2CCCCCC2)ccc2c1CCN(CCCCc1ccccc1)C2 | 0
* Oc1c(CN2CCCCCC2)ccc2c1CCN(CCC(c1ccccc1)c1ccccc1)C2 | 0
* Oc1c(CN2CCCCC2)cc(Cc2cc(CN3CCCCC3)c(O)c3ncccc23)c2ccncc12 | 0
* COc1ccc(CCCCN2CCc3c(ccc(CN4CCCCCC4)c3O)C2)cc1 | 0
* Oc1c(CN2CCCCCC2)ccc2c1CCN(CCCCC=C(c1ccccc1)c1ccccc1)C2 | 1
* Oc1c(CN2CCCCCC2)ccc2c1CCN(CCCCC(c1ccccc1)c1ccccc1)C2 | 0
* Oc1c(CN2CCCCCC2)ccc2cnccc12 | 0
* CN1CCc2c(ccc(CN3CCCCCC3)c2O)C1 | 0
* Oc1c(CN2CCCCCC2)ccc2c1CCN(CCCCc1ccc(F)cc1)C2 | 0
* Oc1c(CN2CCCCCC2)ccc2c1CCN(CCCCCC(c1ccccc1)c1ccccc1)C2 | 1
* Oc1c(CN2CCCCCC2)ccc2c1CCN(CCCC(c1ccccc1)c1ccccc1)C2 | 1
